assay: Compound at a dose 3 mg/kg was administered to monkey and was evaluated for half life after administration into monkey at 3 mg/kg; type: ADME, organism-based; settings: cercopithecidae, in vivo
recorded-metric: half-life (h)
Give bare numbers, in h.

Looking up `O=C(NCc1ccc(Cc2c[nH]cn2)cc1)Nc1cc(Cl)cc(Cl)c1` , I see its half-life listed as 4.4

----------
assay: Pharmacokinetic parameter Cmax was measured after administration into rat at 10 mg/kg; format: ADME, organism-based; parameters: dose 10 mg/kg; settings: in vivo
recorded-metric: Cmax
Returns: string containing the numeric result and its unit.

Looking up `O=C(NCc1ccc(Cc2c[nH]cn2)cc1)Nc1cc(Cl)cc(Cl)c1` , I see its Cmax listed as 1.7 µg/mL
